Molecular target: VEGF165 (Homo sapiens, UniProt P15692-4 P15692-4:27-191)
Sequence (P15692 other isoform, or with tags, fused parts or gaps): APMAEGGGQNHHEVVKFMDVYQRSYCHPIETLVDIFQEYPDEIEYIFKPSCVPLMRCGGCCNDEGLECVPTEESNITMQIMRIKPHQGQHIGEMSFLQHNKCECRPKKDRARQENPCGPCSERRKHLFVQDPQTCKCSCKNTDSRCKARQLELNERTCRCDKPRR
Experiment: described previously, quoted for comparison
Conditions: tags: R&D Systems carrier-free, expressed in Sf21 insect cells; chain copies: homodimer (inferred); label: 32P 5' end
readout_kind: pKd
Keep in mind that pKd stands for -log10 of concentration in molar terms.

// returns reported pKd for input TTTTACCCUGAUGGUAGACGCCGGGGUGTTTTT (mixed, PS DNA T at 1-4 and 29-33; 2'-OMe at 5,13,16,17,20,23-26,28; 2'-NH2 at 6-9,12,15,19,21,22,27) [NX213]
9.85
